Where do the numbers come from? From patent US20250002487A1.

Record set of pIC50 for target or system human-cGAS (h-cGAS) (Homo sapiens).
pIC50: −log10 of the molar value.

Prompt line: Let me know recorded pIC50 for `CSc1nnc(NC(=O)c2cc(-c3cccc(F)c3)cc(=O)o2)s1` , thanks.
Response line: 6.30 to 7.00

Prompt line: Look up and report measured pIC50 for this entry: `CSc1nnc(NC(=O)c2cc(C3CCC3)no2)s1`
Response line: 6.00 to 6.30

###

Biological target: human-cGAS (h-cGAS) (Homo sapiens, UniProt Q8N884)
Sequence (Q8N884 whole entry): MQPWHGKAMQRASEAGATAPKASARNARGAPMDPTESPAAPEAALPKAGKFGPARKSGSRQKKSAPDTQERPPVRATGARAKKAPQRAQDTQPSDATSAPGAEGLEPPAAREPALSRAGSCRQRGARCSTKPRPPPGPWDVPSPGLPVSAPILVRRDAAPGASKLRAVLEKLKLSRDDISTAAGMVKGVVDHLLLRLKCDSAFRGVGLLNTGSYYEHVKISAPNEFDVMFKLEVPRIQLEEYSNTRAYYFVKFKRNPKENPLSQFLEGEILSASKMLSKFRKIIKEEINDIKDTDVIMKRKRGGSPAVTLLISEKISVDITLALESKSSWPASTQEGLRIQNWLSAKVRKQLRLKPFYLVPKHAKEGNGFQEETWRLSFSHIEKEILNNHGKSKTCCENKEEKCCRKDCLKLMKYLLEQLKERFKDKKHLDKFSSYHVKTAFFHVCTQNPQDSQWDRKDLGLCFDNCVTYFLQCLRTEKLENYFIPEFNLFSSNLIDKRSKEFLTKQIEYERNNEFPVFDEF
Experiment: hcGAS Kinase-Glo Assay
Assay type: biochemical
Conditions: 40 nM h-cGAS, 100 μM ATP, 100 μM GTP, 25 nM dsDNA, 3 h incubation, read-out: hcGAS potency IC50
pIC50: −log10 of the molar value.
property-name: pIC50

These recorded examples may help you get a feel for the data.
CSc1nnc(NC(=O)c2cc(-c3ccccc3-c3ccc(CC(=O)O)cc3)cc(=O)o2)s1 = 6.00 to 6.30
CSc1nnc(NC(=O)c2cc(=O)c3cccc(O)c3[nH]2)s1 = ≤ 6.00
CSc1nnc(NC(=O)c2cc(C3CCCCC3)no2)s1 = 6.30 to 7.00
CSc1nnc(NC(=O)c2nnc(N3CCC3c3ccccc3)o2)s1 (stereo not shown) = ≤ 6.00
CSc1nnc(NC(=O)c2ccnc(-c3ccccc3)c2)s1 = ≤ 6.00

Prompt line: Given the compound `O=C(O)Cc1nnc(NC(=O)c2onc3ccccc23)s1` , write its reported pIC50.
Response line: ≤ 6.00

Prompt line: Determine from records and report pIC50 for `CSc1nnc(NC(=O)c2onc3c2CCc2sc(C)nc2-3)s1`
Response line: 6.00 to 6.30

Prompt line: Please indicate pIC50 recorded for `CSc1nnc(NC(=O)c2cc(-c3ccc(F)cc3F)no2)s1`
Response line: 6.00 to 6.30

Prompt line: # return recorded pIC50 for input CSc1nnc(NC(=O)c2onc3ccc(CN4CC[C@@H](O)[C@H](O)C4)cc23)s1 (racemic)
Response line: ≤ 6.00

Prompt line: Report pIC50 for `CSc1nnc(NC(=O)c2cc(-c3cccc4c(C)ccnc34)cc(=O)o2)s1`
Response line: 6.30 to 7.00

Prompt line: Please supply the value of reported pIC50 for the item `O=C(Nc1nnc(-c2ccccc2Cl)s1)c1cc(C2CCOCC2)no1`
Response line: 6.30 to 7.00

Prompt line: For the compound `Cc1ccnc(-c2cc(C(=O)Nc3nnc(-c4ccccc4Cl)s3)on2)n1` , report pIC50.
Response line: 6.30 to 7.00

Prompt line: Quick one: give measured pIC50 for `NC(=O)c1cc(C(=O)Nc2nnc(-c3ccccc3Cl)s2)on1`
Response line: 6.30 to 7.00
